Data provenance: patent US20260248783A1

Biological target: PD-1/PD-L1 (Homo sapiens, UniProt Q9NZQ7)
Construct: Recombinant human PD-L1 protein (19-238) with a Histag at the C-terminus; PD1-H5257 (PD-1)
Sequence (Q9NZQ7 19-238): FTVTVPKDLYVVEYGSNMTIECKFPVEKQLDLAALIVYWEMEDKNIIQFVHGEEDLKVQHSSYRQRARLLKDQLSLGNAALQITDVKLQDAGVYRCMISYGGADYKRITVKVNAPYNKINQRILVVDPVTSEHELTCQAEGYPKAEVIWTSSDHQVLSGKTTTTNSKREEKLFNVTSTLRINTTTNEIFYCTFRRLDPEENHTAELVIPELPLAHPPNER
Test: PD-1/PD-L1 Homogeneous Time-Resolved Fluorescence (HTRF) Binding Assay
Details: PD-1/PD-L1 HTRF activity; 3 nM PD1, 10 nM PD-L1, 25° C.
pIC50: −log10 of the molar value.
For each record, write down the corresponding pIC50.

I am curious: what pIC50 value has been reported for Cc1cn2nc(-c3cccc(-c4cccc(-c5cc6c(=O)n(CCNCCO)c(C)cn6n5)c4Cl)c3Cl)cc2c(=O)n1CCNCCO [Compound 52] ?
> 8.00

And Cc1cn2nc(-c3cccc(-c4cccc(-c5cc6c(=O)n(CCN[C@@H](CN(C)C)C(=O)O)c(C)cn6n5)c4Cl)c3Cl)cc2c(=O)n1CCN[C@@H](CN(C)C)C(=O)O [Compound 69] ?
≤ 7.00

And Cc1cn2nc(-c3cccc(-c4cccc(-c5cc6c(=O)n(CCN[C@H]7C[C@@H](O)C7)c(C)cn6n5)c4Cl)c3Cl)cc2c(=O)n1CCN[C@H]1C[C@@H](O)C1 [Compound 91] ?
> 8.00

And Cc1cn2cc(-c3cccc(-c4cccc(-c5cc6c(=O)n(CCN7CC[C@H](C(=O)O)C7)c(C)cn6c5)c4Cl)c3Cl)cc2c(=O)n1CCN1CC[C@H](C(=O)O)C1 [Compound 53] ?
> 8.00

And Cn1c(CNC[C@@H]2CCC(=O)N2)cn2cc(-c3cccc(-c4cccc(-c5cc6c(=O)n(C)c(CNC[C@@H]7CCC(=O)N7)cn6c5)c4Cl)c3Cl)cc2c1=O [Compound 74] ?
7.00 to 8.00

And O=C(O)CCn1cnn2cc(-c3cccc(-c4cccc(-c5cc6c(=O)n(CCC(=O)O)cnn6c5)c4Cl)c3Cl)cc2c1=O [Compound 24] ?
≤ 7.00

And O=c1c2cc(-c3cccc(-c4cccc(-c5cc6c(=O)n(CCn7nccn7)cnn6c5)c4Cl)c3Cl)cn2ncn1CCn1nccn1 [Compound 25] ?
7.00 to 8.00

And O=c1c2cc(-c3cccc(-c4cccc(-c5cc6c(=O)n(CCn7cccn7)cnn6c5)c4Cl)c3Cl)cn2ncn1CCn1cccn1 [Compound 21] ?
≤ 7.00

And O=C1CC[C@@H](Cn2ccn3nc(-c4cccc(-c5cccc(-c6nc7c(=O)n(C[C@@H]8CCC(=O)N8)ccn7n6)c5Cl)c4Cl)nc3c2=O)N1 [Compound 15] ?
> 8.00

And Cc1cn2nc(-c3cccc(-c4cccc(-c5cc6c(=O)n(CCN[C@]7(C(=O)O)C[C@H](O)C7)c(C)cn6n5)c4Cl)c3Cl)cc2c(=O)n1CCN[C@]1(C(=O)O)C[C@H](O)C1 [Compound 102] ?
> 8.00

And CCc1cn2nc(-c3cccc(-c4cccc(-c5cc6c(=O)n(C[C@@H]7CCC(=O)N7)c(CC)cn6n5)c4Cl)c3Cl)cc2c(=O)n1C[C@@H]1CCC(=O)N1 [Compound 33] ?
7.00 to 8.00
